Each entry below carries its recorded pEC50.
Test system: HIV-1 (H9IIIB strain)
Assay: Cell-Based HIV Infection Assay Using a Reporter (MT4-GFP cells)
Conditions: Human immunodeficiency virus 1, inflection point (IP) of viral growth inhibition; MT4-GFP cells infected with HIV-1 H9IIIB; 50% normal human serum; mean of at least two independent experiments; read-out: Cell Based IP (50% NHS)
Quick note: pEC50 values are minus log10 of concentrations in mol/L.

QUERY: Param request: pEC50 | system HIV-1 (H9IIIB strain) | item C[C@@H]1CC([C@H](c2ccc(F)cc2)[C@H](N)C(=O)Nc2cccc(C(F)(F)F)c2CC[C@H]2CN[C@@H]3CCCS(=O)(=O)N2C3)C[C@H](C)O1 (stereo partly drawn)
RESULT: 6.64

QUERY: Please look at CO[C@H]1C[C@@H]([C@H](c2ccc(F)cc2)[C@H](N)C(=O)Nc2cccc(F)c2CC[C@H]2CN[C@@H]3CCCS(=O)(=O)N2C3)C1 and tell me its recorded pEC50 on HIV-1 (H9IIIB strain).
RESULT: 6.96

QUERY: Given COC(=O)N[C@H](C(=O)Nc1cccc(F)c1CC[C@H]1CN[C@@H]2CCCS(=O)(=O)N1C2)[C@@H](c1ccc(F)cc1)C1C[C@@H](C)O[C@H](C)C1 (stereo partly drawn) , report its pEC50 on HIV-1 (H9IIIB strain).
RESULT: 7.38

QUERY: Consider the molecule N[C@H](C(=O)Nc1cccc(F)c1CCC1CNC2CCCS(=O)(=O)N1C2)[C@@H](c1ccc(Cl)cc1)C1CCC(F)(F)CC1 (stereo partly drawn) tested on HIV-1 (H9IIIB strain); state its pEC50.
RESULT: 7.62

QUERY: Identify measured pEC50 obtained with HIV-1 (H9IIIB strain) for COc1ccc([C@H](c2ccc(Cl)cc2)[C@H](N)C(=O)N[C@H]2CCC[C@@H]2CC[C@H]2CN[C@@H]3CCCS(=O)(=O)N2C3)cn1 .
RESULT: 7.15

QUERY: Enter pEC50 (test system HIV-1 (H9IIIB strain)) for N[C@H](C(=O)Nc1cccc(F)c1CC[C@H]1CN[C@@H]2CCCS(=O)(=O)N1C2)[C@H](c1cnc(C(F)(F)F)nc1)c1ccc(Cl)c(F)c1
RESULT: 8.29
